- tgt: Torsin-1A (Homo sapiens) (UniProt O14656)
- Sequence (O14656 whole entry, looked up): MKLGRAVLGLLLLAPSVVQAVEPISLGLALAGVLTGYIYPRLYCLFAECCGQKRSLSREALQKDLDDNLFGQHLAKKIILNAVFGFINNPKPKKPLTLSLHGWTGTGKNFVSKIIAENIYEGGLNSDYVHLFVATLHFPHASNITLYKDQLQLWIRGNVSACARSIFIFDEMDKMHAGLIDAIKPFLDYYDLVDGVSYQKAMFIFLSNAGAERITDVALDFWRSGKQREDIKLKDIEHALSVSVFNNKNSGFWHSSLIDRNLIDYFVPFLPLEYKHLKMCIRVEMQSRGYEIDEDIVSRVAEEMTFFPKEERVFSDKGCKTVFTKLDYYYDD
- test-details: TOR1A wild-type binding on microarray – cell lysate, small-molecule microarray, lysate, 635/667 nm, primary screen (AID 1149)
- run-parameters: COS7 hTOR1A-WT lysate, 635 nm fluorescence, higher = more signal
In this scheme, each record receives a class according to its composite z-score; the ranges are 0 (below 0.1), 1 (0.1 to below 0.5), 2 (0.5 or more)

Examples with answers:
[
  {
    "molecule": "COC(=O)[C@@]1(Cc2ccc(F)cc2)[C@H]2c3cc(C(=O)N(C)C)n(Cc4ccc(OC(F)(F)F)cc4)c3C[C@H]2CN1C(=O)c1ccccc1",
    "label-class": 1
  },
  {
    "molecule": "COC(=O)[C@@]1(Cc2ccc(OC)cc2)[C@H]2c3cc(C(=O)N(C)C)n(Cc4ccc(OC(F)(F)F)cc4)c3C[C@H]2CN1C(=O)c1ccccc1",
    "label-class": 0
  },
  {
    "molecule": "[N-]=[N+]=Nc1ccccc1C[C@@]1(C(N)=O)N=C(c2ccc(OCCCO)cc2)O[C@@H]1c1ccccc1N=[N+]=[N-]",
    "label-class": 1
  }
]

Here is another molecule to look at.
Assign a bin to CC[C@@H]1C=C(C(=O)O)[C@H](c2ccccc2)N1S(=O)(=O)c1ccc(C)cc1
1
